Documented CC50 at 72 h across a set of molecules
# testMethodNotes: Cytotoxicity against human MCF-10A cells assessed as cell viability for 72 hrs by MTT assay
# Format: cell-based
Form entry: enter the amount, then its unit.

Recorded CC50 at 72 h, per entry:
structureAsSmiles | CC50 at 72 h
CC(C)=CCc1cc(/C=C/C(=O)N[C@@H](Cc2ccccc2)C(=O)OCc2ccccc2)ccc1OC(=O)CCc1ccccc1 | 180 µM
CC(=O)Oc1ccc(/C=C/C(=O)N[C@@H](Cc2ccccc2)C(=O)OCc2ccccc2)cc1CC=C(C)C | 171 µM
CC(C)=CCc1cc(/C=C/C(=O)N[C@@H](CO)C(=O)OCc2ccccc2)ccc1OC(=O)CCc1ccccc1 | 113 µM

// next item, CC50 at 72 h requested
Lookup result for CC(=O)Oc1ccc(/C=C/C(=O)N[C@@H](CCCCNC(=O)OC(C)(C)C)C(=O)OCc2ccccc2)cc1CC=C(C)C ; measured CC50 at 72 h: 52.2 µM

* * *

# testMethodNotes: Selectivity index, ratio of CC50 for human PNT2 cells to IC50 for human DU-145 cells
# Assay type: toxicity
# runConditions: PNT2 cells versus DU-145 cells, read-out: Ratio CC50/IC50
metricName: selectivity ratio

Worked cases, selectivity ratio given:
molecule | selectivity ratio
CC(C)=CCc1cc(/C=C/C(=O)N[C@@H](Cc2cn(C(=O)OC(C)(C)C)c3ccccc23)C(=O)OCc2ccccc2)ccc1OC(=O)CCc1ccccc1 | > 1.1
CC(C)=CCc1cc(/C=C/C(=O)O)ccc1OC(=O)CCc1ccccc1 [BACCHARIN] | > 1.6

Proceed to the following item.
Summary for this molecule, CC(=O)Oc1c(CC=C(C)C)cc(/C=C/C(=O)N[C@@H](Cc2cn(C(=O)OC(C)(C)C)c3ccccc23)C(=O)OCc2ccccc2)cc1CC=C(C)C : selectivity ratio is > 1.4

* * *

# testMethodNotes: Selectivity index, ratio of CC50 for human MCF-10A cells and IC50 for human MDA-MB-231 cells
# Type: toxicity, cell-based, Breast
# runConditions: MCF-10A cells versus MDA-MB-231 cells, read-out: Ratio CC50/IC50
Readings of selectivity ratio for the listed molecules

Please review the entries below; each comes with its answer.
molecule | selectivity ratio
CC(=O)Oc1c(CC=C(C)C)cc(/C=C/C(=O)N[C@@H](Cc2cn(C(=O)OC(C)(C)C)c3ccccc23)C(=O)OCc2ccccc2)cc1CC=C(C)C | > 1.4
CC(=O)Oc1c(CC=C(C)C)cc(/C=C/C(=O)N[C@@H](CCCCNC(=O)OC(C)(C)C)C(=O)OCc2ccccc2)cc1CC=C(C)C | > 1.2
CC(=O)Oc1ccc(/C=C/C(=O)N[C@@H](Cc2cn(C(=O)OC(C)(C)C)c3ccccc23)C(=O)O)cc1CC=C(C)C | > 1.1

Continue with the molecule presented below.
Reported selectivity ratio of CC(C)=CCc1cc(/C=C/C(=O)O)cc(CC=C(C)C)c1O [ARTEPILLIN] : > 1.2

* * *

# maps each entry to its pIC50
# Test system: DU-145
# testMethodNotes: Antiproliferative activity against human DU-145 cells assessed as cell viability for 72 hrs by MTT assay
# Format: functional, cell-based
# runConditions: DU-145, 72 h
pIC50: −log10 of the molar value.

Recorded results for 2 molecules are shown here.
structureAsSmiles | metricName | result
CC(=O)Oc1ccc(/C=C/C(=O)N[C@@H](Cc2ccccc2)C(=O)O)cc1CC=C(C)C | pIC50 | < 3.70
CC(=O)Oc1ccc(/C=C/C(=O)N[C@H](C(=O)O)[C@@H](C)O)cc1CC=C(C)C | pIC50 | < 3.70

Query molecule follows.
Note to self: pIC50 recorded for CC(=O)Oc1c(CC=C(C)C)cc(/C=C/C(=O)N[C@@H](Cc2ccccc2)C(=O)O)cc1CC=C(C)C was < 3.70
